Recorded values, source paper PMC11555526.

- Tested on: MV4-11 cells (naive)
- procedure-summary: alamarBlue cell viability assay
- Type: cell-based, human
- test-parameters: Homo sapiens; 72 h treatment, MV4-11 cells (naive); read-out: EC50 (concentration that decreases cell viability by 50%)
property-measured: pEC50
Answers are plain numbers, as −log10 of the molar value.

In the examples that follow, each entry is paired with its recorded pEC50.
In [3]: df
Out[3]:
                                   compound  readout_number
0  COc1cc(N2CCC(O)CC2)ccc1Nc1nc(Nc2ccccc2S(=O)(=O)C(C)C)c2nc[nH]c2n1 [MPS1-IN-3, reference compound]            5.89
1  c1nc2c(NC3CCCCC3)nc(Nc3ccc(N4CCNCC4)cc3)nc2[nH]1 [azareversine, reference compound]            6.91
2  CC(C)S(=O)(=O)c1ccccc1Nc1nc(Nc2ccc(N3CCNCC3)cc2)nc2[nH]cnc12            7.55

Proceeding to the next compound to report its pEC50.
Problem: Specify reported pEC50 for the compound shown: "COc1cc(N2CCNCC2)ccc1Nc1nc(Nc2ccccc2S(=O)(=O)C(C)C)c2nc[nH]c2n1"
Solution: 5.69
